targetOrSystem: Tyrosinase (Agaricus bisporus)
protocolDescription: Inhibition of mushroom tyrosinase using L-DOPA as substrate preincubated for 10 mins followed by substrate addition measured for 20 mins
pIC50: −log10 of the molar value.
Label fulfilled for high-side pIC50 (at or above 5) and not fulfilled for low-side pIC50 (below it).

- chemicalSmiles: "CCCCC(=O)NC(=S)Nc1c(C)cc(C)cc1C"
  targetOrSystem: "Tyrosinase (Agaricus bisporus)"
  labelValue: "not fulfilled"
- chemicalSmiles: "CCCCC(=O)NC(=S)Nc1ccc(OC)cc1"
  targetOrSystem: "Tyrosinase (Agaricus bisporus)"
  labelValue: "fulfilled"
- chemicalSmiles: "CCCCC(=O)NC(=S)Nc1c(Br)cc(F)cc1Br"
  targetOrSystem: "Tyrosinase (Agaricus bisporus)"
  labelValue: "not fulfilled"

----------
targetOrSystem: Tyrosinase (Agaricus bisporus)
Sequence (O42713 whole entry): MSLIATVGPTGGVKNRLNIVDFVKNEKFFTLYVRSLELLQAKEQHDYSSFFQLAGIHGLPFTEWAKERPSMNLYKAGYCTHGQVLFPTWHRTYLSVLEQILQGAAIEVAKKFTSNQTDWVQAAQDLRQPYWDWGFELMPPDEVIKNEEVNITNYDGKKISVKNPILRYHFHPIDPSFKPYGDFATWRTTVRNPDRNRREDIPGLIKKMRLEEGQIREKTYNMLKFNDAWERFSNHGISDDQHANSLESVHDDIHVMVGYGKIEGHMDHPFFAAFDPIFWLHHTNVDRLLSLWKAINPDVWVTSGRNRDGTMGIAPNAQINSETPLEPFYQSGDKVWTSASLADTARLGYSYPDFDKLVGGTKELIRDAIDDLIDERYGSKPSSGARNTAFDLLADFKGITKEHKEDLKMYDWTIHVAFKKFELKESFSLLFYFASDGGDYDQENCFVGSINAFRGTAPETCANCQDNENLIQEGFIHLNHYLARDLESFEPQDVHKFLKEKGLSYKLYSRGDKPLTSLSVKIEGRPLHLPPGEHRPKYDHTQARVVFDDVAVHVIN
recordedMetric: IC50

- chemicalSmiles: "CCCCC(=O)NC(=S)Nc1cccc(Cl)c1Cl"
  assayResult: "7.75 µM"
- chemicalSmiles: "CCCCC(=O)NC(=S)Nc1ccc([N+](=O)[O-])cc1"
  assayResult: "7.99 µM"
- chemicalSmiles: "CCCCC(=O)NC(=S)Nc1ccc([N+](=O)[O-])cc1[N+](=O)[O-]"
  assayResult: "10.1 µM"
